B1: tRNA (parent)
chain: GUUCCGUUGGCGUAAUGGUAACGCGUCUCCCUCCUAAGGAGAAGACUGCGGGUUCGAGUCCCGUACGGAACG

Variants of: B1
protocol.notes: yeast fitness relative to wild type (ratio to wild type); higher = fitter; tRNA-Arg(CCU), competitive growth, 37 C, YPD
Fewer inactive variants are shown than the library holds.
Please enter yes (1) where yeast fitness is greater than or equal to 0.6, and no (0) where it is lower.

[[record]]
sequence_data = "GGUCCGUUGGUGUAAUGGUAACACGUCUCCCUCCUAAGGAGAAGACUGCGGGUUCGAGUCCCGUACGGAACG [U2G C11U G23A]"
category = "no (0)"

[[record]]
sequence_data = "GUUCCGUUGGCGUAAUGGUAACGCGUCUCCGUCCUAAGGAGAAGACUGCGGGUUCGACUCCCGUACGGAACG [C31G G58C]"
category = "yes (1)"

[[record]]
sequence_data = "GUUCCGUUGGCGUAAUGGUAAUGCGUCUCCCUCCUAUGGAGAAGACUGCGGGUUCGAGUCCCGUACGGAACG [C22U A37U]"
category = "yes (1)"

[[record]]
sequence_data = "GUUCCGUUGGCGUAAUGGUAACCCGUCUCCCUCCUAAGCAGAAGACUGCGGGUUCGAGUCCCGUACGGAUCG [G23C G39C A70U]"
category = "no (0)"

[[record]]
sequence_data = "GUUCCGUUGGCGUAAUGGUAGCGCGUCUCCCUACUAAGGAGAAGACUGCGGGUUCGAGUCCCGUCCGGACCG [A21G C33A A65C A70C]"
category = "no (0)"


Next item in the queue.
Q) Item GUUCUGUUGGCGUAAUGGUAAGGGGUCUCCUUCCUAAGGAGAAGACUGCGGGUUCGAGUCCCGUACGGACCG [C5U C22G C24G C31U A70C] with yeast fitness of 0.6 or above?
A) no (0)

Hey, just so you know, these numbers are from the RNAGym collection of RNA variant scans (doi:10.1126/science.aae0568).
